Exercise: state measured EC50 for each of the molecules provided.
- ASSAY TARGET: iGABASnFR2n (Pseudomonas fluorescens, UniProt A0A1B3D787, F126L/F129H/N285A/S124A)
- Sequence (A0A1B3D787 27-341, stated change not applied): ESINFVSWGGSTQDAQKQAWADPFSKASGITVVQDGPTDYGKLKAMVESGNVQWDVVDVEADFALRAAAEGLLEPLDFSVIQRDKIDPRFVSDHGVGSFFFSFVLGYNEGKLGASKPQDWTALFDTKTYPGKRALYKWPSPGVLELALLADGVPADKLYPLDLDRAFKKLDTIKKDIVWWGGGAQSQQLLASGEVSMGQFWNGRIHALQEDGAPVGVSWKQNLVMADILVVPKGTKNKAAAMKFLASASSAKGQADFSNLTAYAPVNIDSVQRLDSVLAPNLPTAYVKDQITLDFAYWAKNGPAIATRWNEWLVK
- Sequence (P42212 whole entry Y145W/R168P partner): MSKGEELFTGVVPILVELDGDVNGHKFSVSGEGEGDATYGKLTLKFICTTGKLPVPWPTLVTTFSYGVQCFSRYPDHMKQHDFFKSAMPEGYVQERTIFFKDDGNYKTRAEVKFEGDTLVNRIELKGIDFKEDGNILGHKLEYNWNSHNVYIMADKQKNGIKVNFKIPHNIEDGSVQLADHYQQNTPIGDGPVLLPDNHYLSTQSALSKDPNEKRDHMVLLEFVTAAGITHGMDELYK
- MEASUREMENT NOTES: biochemical
Numeric only. Scale: µM

The molecule listed as NCc1cc(=O)[nH]o1 [muscimol, reference compound] shows EC50 equal to 2.62

The molecule listed as N[C@@H](CC(=O)O)C(=O)O [aspartate] shows EC50 equal to 0.526

The molecule listed as "NCCCC[C@H](N)C(=O)O" shows EC50 equal to 741

The molecule listed as "NC(=O)C[C@H](N)C(=O)O" shows EC50 equal to 5500

The molecule listed as "C[C@@H](O)[C@H](N)C(=O)O" shows EC50 equal to 9000

The molecule listed as Cc1ccsc1C(=CCCN1CCC[C@@H](C(=O)O)C1)c1sccc1C [tiagabine, reference compound] shows EC50 equal to 2230

The molecule listed as "CC(C)[C@H](N)C(=O)O" shows EC50 equal to 1.47

The molecule listed as "C[C@H](N)C(=O)O" shows EC50 equal to 582

The molecule listed as "CC[C@H](C)[C@H](N)C(=O)O" shows EC50 equal to 111

The molecule listed as CN1CCc2cc3c(cc2[C@H]1[C@@H]1OC(=O)c2c1ccc1c2OCO1)OCO3 [bicuculline, reference compound] shows EC50 equal to 9000

The molecule listed as "N[C@@H](CO)C(=O)O" shows EC50 equal to 5520

The molecule listed as "N[C@@H](Cc1ccccc1)C(=O)O" shows EC50 equal to 1150

The molecule listed as "N=C(N)NCCC[C@H](N)C(=O)O" shows EC50 equal to 3.35

The molecule listed as "O=C(O)[C@@H]1CCCN1" shows EC50 equal to 2490

The molecule listed as "NCCc1c[nH]cn1" shows EC50 equal to 9000

The molecule listed as "CSCC[C@H](N)C(=O)O" shows EC50 equal to 9000

The molecule listed as NCC(CC(=O)O)c1ccc(Cl)cc1 (stereo not drawn) [baclofen, reference compound] shows EC50 equal to 6.3

The molecule listed as "N[C@@H](Cc1c[nH]c2ccccc12)C(=O)O" shows EC50 equal to 0.396

---

- ASSAY TARGET: iGABASnFR1 (Pseudomonas fluorescens, UniProt A0A1B3D787, F126L/N285A)
- Sequence (A0A1B3D787 27-341, stated change not applied): as the sequence (A0A1B3D787 27-341, stated change not applied) above
- Sequence (P42212 with tags, fused parts or gaps S30R/Y39N/F64L/F99S/N105T/Y145W partner): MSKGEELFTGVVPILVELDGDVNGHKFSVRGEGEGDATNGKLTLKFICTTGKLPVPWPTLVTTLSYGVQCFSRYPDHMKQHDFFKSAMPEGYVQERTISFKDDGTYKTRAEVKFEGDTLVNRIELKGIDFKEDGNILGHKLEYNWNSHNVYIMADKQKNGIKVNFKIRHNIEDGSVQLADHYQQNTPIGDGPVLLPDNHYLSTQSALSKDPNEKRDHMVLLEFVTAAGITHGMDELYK
- MEASUREMENT NOTES: biochemical
Exercise: state measured pEC50 for each of the molecules provided.
As a rule, pEC50 stands for the negative log10 of the concentration, concentration in M.

The molecule listed as "NC(=O)C[C@H](N)C(=O)O" shows pEC50 equal to 2.07

The molecule listed as "N=C(N)NCCC[C@H](N)C(=O)O" shows pEC50 equal to 4.23

The molecule listed as C=CC(N)CCC(=O)O (centres unmarked) [vigabatrin, reference compound] shows pEC50 equal to 2.27

The molecule listed as "N[C@@H](CO)C(=O)O" shows pEC50 equal to 4.29

The molecule listed as NCc1cc(=O)[nH]o1 [muscimol, reference compound] shows pEC50 equal to 5.24

The molecule listed as "C[C@H](N)C(=O)O" shows pEC50 equal to 2.77

The molecule listed as "CC(C)[C@H](N)C(=O)O" shows pEC50 equal to 5.87

The molecule listed as "CC[C@H](C)[C@H](N)C(=O)O" shows pEC50 equal to 5.61

The molecule listed as "NCCCC[C@H](N)C(=O)O" shows pEC50 equal to 4.11

The molecule listed as "C[C@@H](O)[C@H](N)C(=O)O" shows pEC50 equal to 4.70

The molecule listed as NCC(CC(=O)O)c1ccc(Cl)cc1 (centres unmarked) [baclofen, reference compound] shows pEC50 equal to 2.13

The molecule listed as N[C@@H](CC(=O)O)C(=O)O [aspartate] shows pEC50 equal to 5.62

The molecule listed as "CSCC[C@H](N)C(=O)O" shows pEC50 equal to 6.38

The molecule listed as "N[C@@H](Cc1ccccc1)C(=O)O" shows pEC50 equal to 5.43
